Measured Target: Avi-KRAS G12R (1-169) GppNHp/RAF1 RBD-3xFLAG (52-151) (Homo sapiens, UniProt P01116, G12R)
Construct: Avi-KRAS G12R (1-169)
Sequence (P01116 1-169 isoform P01116-2 G12R): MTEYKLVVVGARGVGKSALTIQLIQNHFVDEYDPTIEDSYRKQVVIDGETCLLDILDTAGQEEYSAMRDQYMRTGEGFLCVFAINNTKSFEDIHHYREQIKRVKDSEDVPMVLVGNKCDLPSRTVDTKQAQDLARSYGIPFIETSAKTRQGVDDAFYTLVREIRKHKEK
Measurement Description: Raf1-KRAS G12R-GppNHP disruption HTRF assay (Biological Example 1)
Assay type: binding
Condition Context: KRAS G12R, GppNHp-loaded; class symbols
Method: A protein:protein interaction (PPI) Homogeneous Time Resolved Fluorescence (HTRF) assay was used to determine the effectiveness of compounds of the present disclosure in disrupting KRAS protein and effector RAF1 binding. The assay buffer included: 50 mM Tris pH 7.5, 100 mM NaCl, 5 mM MgCl2, 0.1% BSA, 0.01% Tween, and 10% DMSO. The bead buffer included: 50 mM Tris pH 7.5, and 0.01% Tween 20. […] Data was reported as percentage of activity, with DMSO as 100%. Data was plotted and analyzed using Prism 8.
pIC50: −log10 of the molar value.
Kindly state pIC50 for each of the entries shown.

# return recorded pIC50 for input CCN(c1nc(OC[C@@]23CCCN2C[C@H](F)C3)nc2c(F)c(-c3ccc(F)c4sc(N)c(C#N)c34)c(C(F)(F)F)cc12)[C@H]1CCN(C(=O)N2CC(F)C2)[C@@H]1C (atropisomer, axis not shown)
> 7.00

# return recorded pIC50 for input CCN(c1nc(OC[C@@]23CCCN2C[C@H](F)C3)nc2c(F)c(-c3ccc(F)c4sc(N)c(C#N)c34)c(C(F)(F)F)cc12)[C@H]1CCN(C(=O)c2ccsn2)C1 (atropisomer, axis not shown)
> 7.00

# return recorded pIC50 for input [2H]C([2H])([2H])OC(=O)N1CC[C@H](N(CC)c2nc(OC[C@@]34CCCN3C[C@H](F)C4)nc3c(F)c(-c4ccc(F)c5sc(N)c(C#N)c45)c(C(F)(F)F)cc23)C1 (atropisomer, axis not shown)
> 7.00

# return recorded pIC50 for input CCN(c1nc(OCC23CCCN2CC(F)C3)nc2c(F)c(-c3ccc(F)c4sc(N)c(C#N)c34)c(C(F)(F)F)cc12)C1CCN(C(=O)c2cccnc2)C1 (centres unmarked)
> 7.00

# return recorded pIC50 for input C/C=C/C(=O)N1CC[C@H](N(CC)c2nc(OC[C@@]34CCCN3C[C@H](F)C4)nc3c(F)c(-c4ccc(F)c5sc(N)c(C#N)c45)c(C(F)(F)F)cc23)C1 (atropisomer, axis not shown)
> 7.00

# return recorded pIC50 for input CCN(c1nc(OC[C@@]23CCCN2C[C@H](F)C3)nc2c(F)c(-c3ccc(F)c4sc(N)c(C#N)c34)c(C(F)(F)F)cc12)[C@@H]1C[C@@H](C)N(C(=O)C2COC2)C1 (atropisomer, axis not shown)
6.00 to 7.00

# return recorded pIC50 for input CCN(c1nc(OCC23CCCN2CC(F)C3)nc2c(F)c(-c3ccc(F)c4sc(N)c(C#N)c34)c(C(F)(F)F)cc12)C1CCN(C(=O)c2ccccn2)C1 (centres unmarked)
> 7.00

# return recorded pIC50 for input N#Cc1c(N)sc2c(F)ccc(-c3c(C(F)(F)F)cc4c(N(C5CC5)[C@H]5CCN(C(=O)[C@@H]6CC6(F)F)C5)nc(OC[C@@]56CCCN5C[C@H](F)C6)nc4c3F)c12 (atropisomer, axis not shown)
6.00 to 7.00

# return recorded pIC50 for input CCN(c1nc(OC[C@@]23CCCN2C[C@H](F)C3)nc2c(F)c(-c3ccc(F)c4sc(N)c(C#N)c34)c(C(F)(F)F)cc12)[C@H]1CCN(C(=O)[C@@H]2CCCO2)C1 (atropisomer, axis not shown)
> 7.00

# return recorded pIC50 for input [2H]C([2H])([2H])C([2H])(C(=O)N1CC[C@H](N(CC)c2nc(OC[C@@]34CCCN3C[C@H](F)C4)nc3c(F)c(-c4ccc(F)c5sc(N)c(C#N)c45)c(C(F)(F)F)cc23)C1)C([2H])([2H])[2H] (atropisomer, axis not shown)
> 7.00

# return recorded pIC50 for input CCN(c1nc(OC[C@@]23CCCN2C[C@H](F)C3)nc2c(F)c(-c3ccc(F)c4sc(N)c(C#N)c34)c(C(F)(F)F)cc12)[C@H]1CCN(C(=O)N2CC3C(C2)C3(F)F)C1 (some centres unmarked)
> 7.00

# return recorded pIC50 for input CCN(c1nc(OC[C@@]23CCCN2C[C@H](F)C3)nc2c(F)c(-c3ccc(F)c4sc(N)c(C#N)c34)c(C(F)(F)F)cc12)[C@H]1CCN(C(=O)c2cocn2)C1 (atropisomer, axis not shown)
> 7.00

# return recorded pIC50 for input N#Cc1c(N)sc2c(F)ccc(-c3c(C(F)(F)F)cc4c(N5C[C@H]6C[C@@H]5CO6)nc(OC[C@]56C[C@@H](F)CN5CC5(CC5)C6)nc4c3F)c12
5.00 to 6.00

# return recorded pIC50 for input CCN(c1nc(OC[C@@]23CCCN2C[C@H](F)C3)nc2c(F)c(-c3ccc(F)c4sc(N)c(C#N)c34)c(C(F)(F)F)cc12)[C@H]1CCN(C(=O)c2ccn(C)n2)C1 (atropisomer, axis not shown)
> 7.00

# return recorded pIC50 for input CC[C@H](C)C(=O)N1CC[C@H](N(CC)c2nc(OC[C@@]34CCCN3C[C@H](F)C4)nc3c(F)c(-c4ccc(F)c5sc(N)c(C#N)c45)c(C(F)(F)F)cc23)C1 (atropisomer, axis not shown)
> 7.00

# return recorded pIC50 for input CCN(c1nc(OC[C@@]23CCCN2C[C@H](F)C3)nc2c(F)c(-c3ccc(F)c4sc(N)c(C#N)c34)c(C(F)(F)F)cc12)[C@H]1CCN(C(=O)N2CCC2)C1 (atropisomer, axis not shown)
> 7.00

# return recorded pIC50 for input CCN(c1nc(OC[C@@]23CCCN2C[C@H](F)C3)nc2c(F)c(-c3ccc(F)c4sc(N)c(C#N)c34)c(C(F)(F)F)cc12)[C@H]1CCN(C(=O)[C@@H]2C[C@@H]2C)C1 (atropisomer, axis not shown)
> 7.00

====

Kindly state pIC50 for each of the entries shown.
Measured Target: Avi-KRAS WT (1-169) GppNHp/RAF1 RBD-3xFLAG (52-151) (Homo sapiens, UniProt P01116)
Construct: Avi-KRAS WT (1-169)
Sequence (P01116 1-169 isoform P01116-2): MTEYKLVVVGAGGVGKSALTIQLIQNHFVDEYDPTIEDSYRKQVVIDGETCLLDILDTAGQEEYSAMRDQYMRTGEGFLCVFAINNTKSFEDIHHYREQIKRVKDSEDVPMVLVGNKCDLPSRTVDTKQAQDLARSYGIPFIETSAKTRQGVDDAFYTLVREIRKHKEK
Measurement Description: Raf1-KRAS WT-GppNHP disruption HTRF assay (Biological Example 1)
Assay type: binding
Condition Context: KRAS WT, GppNHp-loaded; Table 11
pIC50: −log10 of the molar value.

# return recorded pIC50 for input N#Cc1c(N)sc2c(F)ccc(-c3c(C(F)(F)F)cc4c(N5CCCC5)nc(OC[C@@]56CCCN5C[C@H](F)C6)nc4c3F)c12 [Compound 156]
6.00 to 7.00

# return recorded pIC50 for input C[C@@H]1CN(c2nc(OC[C@@]34CCCN3C[C@H](F)C4)nc3c(F)c(-c4ccc(F)c5sc(N)c(C#N)c45)c(C(F)(F)F)cc23)[C@@H](C)CO1 [Compound 140]
5.00 to 6.00

# return recorded pIC50 for input N#Cc1c(N)sc2c(F)ccc(-c3c(C(F)(F)F)cc4c(N5CCC[C@H](O)C5)nc(OC[C@@]56CCCN5C[C@H](F)C6)nc4c3F)c12 [Compound 236]
6.00 to 7.00

# return recorded pIC50 for input N#Cc1c(N)sc2c(F)ccc(-c3c(C(F)(F)F)cc4c(N5CCCS(=O)(=O)CC5)nc(OC[C@@]56CCCN5C[C@H](F)C6)nc4c3F)c12 [Compound 263]
> 7.00

# return recorded pIC50 for input C[C@@H](O)C1CCN(c2nc(OC[C@@]34CCCN3C[C@H](F)C4)nc3c(F)c(-c4ccc(F)c5sc(N)c(C#N)c45)c(C(F)(F)F)cc23)CC1 [Compound 49]
6.00 to 7.00

# return recorded pIC50 for input CCN(c1nc(OC[C@@]23CCCN2C[C@H](F)C3)nc2c(F)c(-c3ccc(F)c4sc(N)c(C#N)c34)c(C(F)(F)F)cc12)C(C)C [Compound 154]
6.00 to 7.00

# return recorded pIC50 for input Nc1nc2c(-c3c(C(F)(F)F)cc4c(N[C@H]5CC[C@H](O)C5)nc(OCC56CCCN5CCC6)nc4c3F)ccc(F)c2s1 (atropisomer, axis not shown) [Compound 61]
5.00 to 6.00

# return recorded pIC50 for input CCN(CCO)c1nc(OC[C@@]23CCCN2C[C@H](F)C3)nc2c(F)c(-c3ccc(F)c4sc(N)c(C#N)c34)c(C(F)(F)F)cc12 [Compound 74]
> 7.00

# return recorded pIC50 for input C[C@@H]1[C@H](N(C)c2nc(OC[C@@]34CCCN3C[C@H](F)C4)nc3c(F)c(-c4ccc(F)c5sc(N)c(C#N)c45)c(C(F)(F)F)cc23)CCN1C(=O)C1CC1 [Compound 258]
> 7.00

# return recorded pIC50 for input N#Cc1c(N)sc2c(F)ccc(-c3c(C(F)(F)F)cc4c(N5CC6CC(C5)O6)nc(OC[C@@]56CCCN5C[C@H](F)C6)nc4c3F)c12 [Compound 145]
6.00 to 7.00

# return recorded pIC50 for input N#Cc1c(N)sc2c(F)ccc(-c3c(C(F)(F)F)cc4c(N5CC(O)C5)nc(OC[C@@]56CCCN5C[C@H](F)C6)nc4c3F)c12 [Compound 215]
6.00 to 7.00
